- procedure.text: A549 cell viability effects, profiling panel, calcein-AM fluorescence, 48 h, basal (AID 1162); note: test concentration not given here
- protocol.conditions: higher = more signal
Rule: z-score of -0.1 or more gives satisfied; anything lower gives not satisfied.

Past entries and their recorded results:
1) C=CCC(OC(C)=O)[C@@H]1[C@@H](N(Cc2cc3ccccc3o2)C(=O)c2ccc(-c3ccccc3)cc2)c2cc(OCCCO)ccc2N1C(=O)c1ccc2ccccc2n1 (some centres undefined) : satisfied
2) COc1ccc([Si](C)(C)[C@H]2[C@H](CCO)O[C@@]3(C(=O)N(Cc4ccccc4)c4ccc(N(C=O)c5ccccc5)cc43)[C@@H]2C)cc1 : not satisfied
3) COC(=O)[C@]1(CO)N=C(c2ccc(OCCCO)cc2)O[C@@H]1c1ccccc1CN=[N+]=[N-] : satisfied
4) Cc1c(NC(=O)/C(C#N)=C/c2ccc(Cl)cc2)c(=O)n(-c2ccccc2)n1C : satisfied
5) COc1ccc([Si](C)(C)[C@H]2[C@H](CCn3cc([C@H](O)c4ccccc4)nn3)O[C@@]3(C(=O)N(c4ccccc4)c4ccccc43)[C@@H]2C)cc1 : not satisfied

Problem: # bool: z-score of "C[N+](C)(C)CCCCCCNC(=O)[C@@H]1C[C@@H]2C(=O)N[C@@H](Cc3ccccc3)C(=O)N2[C@@H]1c1ccc(O)cc1" >= -0.1
Result: not satisfied

Problem: Further, for "COCCOC(=O)N1C(=O)[C@@]2(c3cc(C#CC4=CCCCC4)ccc31)[C@H](C(=O)N1CCN(c3ncccn3)CC1)[C@H]1C(=O)O[C@H](c3ccccc3)[C@H](c3ccccc3)N1[C@@H]2c1ccccc1OCCO" ?
Result: not satisfied

Problem: Further, for "CC(C)(C)OC(=O)CC[C@]1(C(=O)N2CCOCC2)N=C(c2ccc(OCCCO)cc2)O[C@H]1c1ccccc1CN=[N+]=[N-]" ?
Result: not satisfied

Problem: Further, for "COc1ccc([Si](C)(C)[C@@H]2[C@@H](CC(=O)N(CCO)Cc3ccccc3)O[C@]3(C(=O)N(Cc4ccc(N5CCC5=O)cc4)c4ccccc43)[C@H]2C)cc1" ?
Result: not satisfied

Problem: Further, for "COc1ccc(C#Cc2ccc3c(c2)[C@]2(C(=O)N3)[C@H](C(=O)Nc3nc4ccccc4s3)[C@H]3C(=O)O[C@H](c4ccccc4)[C@H](c4ccccc4)N3[C@@H]2c2ccc(OCCO)cc2)cc1" ?
Result: not satisfied

Problem: Further, for "COc1ccc(CCNC(=O)[C@@]2(Sc3ccc(C)cc3)CC(=O)N(C(C)C)[C@@H]2c2ccc(CO)cc2)cc1" ?
Result: satisfied

Problem: Further, for "CC(C)C[C@@H]1NC(=O)[C@@H]2C[C@H](C(=O)NCCCC[N+](C)(C)C)[C@H](c3ccc(O)cc3)N2C1=O" ?
Result: satisfied

* * *

Recorded z-score, one value per entry.
- experimental.system: NADPH oxidase 2 (Homo sapiens)
- procedure.text: NOX2-dependent H2O2 signal modulators, primary screen, NOX inhibitor project, cell-based, HEK293-NOX2, PMA-stimulated, Amplex Red fluorescence (AID 1159); note: test concentration not given here
- protocol.conditions: 45 min, higher = more signal, called active from +8 up or from −8 down
Number only, please.

Please review the entries below; each comes with its answer.
1) O=C1N(Cc2ccccc2)c2ccccc2[C@H]2OC(c3ccc(OCCCO)cc3)=N[C@@]12Cc1ccccc1 : -1.32
2) COc1ccc([Si](C)(C)[C@H]2[C@H](CCO)O[C@@]3(C(=O)N(Cc4ccccc4)c4ccc(N(C=O)c5ccccc5)cc43)[C@@H]2C)cc1 : -0.98
3) O=C1c2ccccc2[C@](Cc2ccccc2I)(C(=O)O)[C@H](c2ccc(CO)cc2)N1Cc1ccccc1 : 0.516

Consider now this further molecule.
Problem: Recorded z-score of "C=C(CCCC)C(=O)CC[C@H](OC(C)=O)c1ccccc1OCCO" , please.
Result: -1.56

* * *

Recorded z-score, one value per entry.
- procedure.text: basal RPMI8226 viability, no added stimulus, profiling panel, cell-based, calcein-AM fluorescence, 48 h, PK04 Diversity Set (AID 1166);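 note: cells grown under basal conditions without added stimulus; test concentration not given here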
- protocol.conditions: RPMI8226 myeloma viability, higher = more signal
Number only, please.

Please review the entries below; each comes with its answer.
1) C=CCNC(=O)[C@H]1[C@@H]2C(=O)O[C@@H](c3ccccc3)[C@@H](c3ccccc3)N2[C@@H](c2ccccc2OCCO)[C@]12C(=O)N(C(=O)OCCOC)c1ccccc12 : -3.82
2) COC(=O)C1(CC(C)C)C=C2C(=C(C(C)C)C(=O)C2C)CN1 (configuration not stated) : -1.31
3) CCOC(=O)C[C@H]1[C@H](OC(=O)c2ccc(C(=O)c3ccccc3)cc2)[C@@H](NC(=O)c2ccc3ccccc3c2)c2cc(OCCCO)ccc2N1C(=O)c1ccc2ccccc2n1 : -0.693

Consider now this further molecule.
Problem: Recorded z-score of O=C1C2C=CC(C(O)C(c3ccccc3)c3ccccc3)N(Nc3ccccc3)C2C(=O)N1c1ccccc1 (configuration not stated) , please.
Result: -0.213

* * *

Recorded z-score, one value per entry.
- procedure.text: HepG2 liver cancer cell viability effects, profiling panel, resazurin fluorescence, 24 h, PK04 Diversity Set (AID 1172); note: test concentration not given here
- protocol.conditions: higher = more signal

Please review the entries below; each comes with its answer.
1. CN1C(=O)C2C(C1=O)C1C=C(c3ccc(CO)cc3)C2C(c2cccs2)N1C (centres undefined) : -0.584
2. CC(=O)c1ccc(C(O)C2C=CC3C(=O)NC(=O)C3N2Nc2ccc(Cl)cc2Cl)cc1 (centres undefined) : -1.16

Problem: Recorded z-score of "CC1(C)OC[C@@]23C=C(Br)[C@@H](C[C@H]12)[C@@]1(CO1)C3=O" , please.
Result: -0.0972

Problem: Further, for COc1cc2c(cc1O)C(c1ccc(CN3CCCC3)cc1)N(Cc1ccc([N+](=O)[O-])o1)CC2 (centres undefined) ?
Result: -0.274

Problem: Further, for "CCCCC(=C=CC[C@@H](O)c1cccc(OCCO)c1)C[C@@H](O)COCc1ccccc1" ?
Result: 0.161

Problem: Further, for "CC(C)C[C@@H]1NC(=O)[C@H]2C[C@@H](C(=O)NCCCCCNC(=O)CS)[C@@H](c3ccc(O)cc3)N2C1=O" ?
Result: -2.15

Problem: Further, for "C=CCNC(=O)[C@@H]1[C@H]2C(=O)O[C@H](c3ccccc3)[C@H](c3ccccc3)N2[C@H](c2ccccc2OCCO)[C@@]12C(=O)N(C(=O)OCCOC)c1ccc(C#CCCO)cc12" ?
Result: -0.301

Problem: Further, for "COCCOC(=O)N1C(=O)[C@@]2(c3cc(C#CCC(C(=O)OC)C(=O)OC)ccc31)[C@H](C(=O)N1CCc3cc(OC)c(OC)cc3C1)[C@H]1C(=O)O[C@H](c3ccccc3)[C@H](c3ccccc3)N1[C@@H]2c1ccc(O)cc1" ?
Result: 0.227

* * *

- experimental.system: Follistatin (Homo sapiens) (UniProt P19883)
- Sequence (P19883 whole entry, looked up): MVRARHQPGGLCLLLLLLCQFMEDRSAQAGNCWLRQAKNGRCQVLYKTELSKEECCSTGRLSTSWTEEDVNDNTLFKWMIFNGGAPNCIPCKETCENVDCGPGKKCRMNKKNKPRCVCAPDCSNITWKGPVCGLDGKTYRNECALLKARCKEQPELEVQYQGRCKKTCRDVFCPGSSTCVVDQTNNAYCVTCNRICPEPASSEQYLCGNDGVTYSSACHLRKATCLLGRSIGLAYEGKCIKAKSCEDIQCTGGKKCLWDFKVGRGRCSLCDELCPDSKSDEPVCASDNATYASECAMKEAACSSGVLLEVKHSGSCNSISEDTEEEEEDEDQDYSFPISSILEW
- procedure.text: follistatin binders on small-molecule microarrays, primary screen, biochemical, small-molecule microarray, 635/667 nm fluorescence (AID 1132)
- protocol.conditions: FST binding, 635 nm fluorescence, higher = more signal
parameter: composite z-score
Number only, please.

1) COc1cc2c(cc1O)C(C1CC1)N(Cc1ccc([N+](=O)[O-])o1)CC2 (configuration not stated) : 0.361
2) CCCCC(=C=CC[C@H](O)c1ccc(OCCO)cc1)C[C@H](O)c1ccccn1 : 1.27
3) O=C1C2C=CC(C(O)c3cccc(O)c3)N(Nc3ccccc3F)C2C(=O)N1c1ccccc1 (configuration not stated) : 0.434
4) C=CCN1C(=O)[C@]2(O[C@H](CCn3cc([C@H](O)c4ccccc4)nn3)[C@@H]([Si](C)(C)c3ccc(OC)cc3)[C@@H]2C)c2cc(N3C(=O)c4cccc5cccc3c45)ccc21 : -0.167
5) C[C@H]1NC(=O)C([C@@H](C)OCc2ccccc2)NC(=O)[C@@]23C(=O)N[C@@H](Cc4ccccc4)C2[C@H](C)[C@@]2(C)O[C@H]2C3/C=C/C/C=C\CNC1=O (some centres not stated) : 0.425
6) CCOC(=O)C1=CC[C@@H](c2ccccc2Cl)N(S(=O)(=O)c2ccc(C)cc2)[C@H]1c1cccc(OC)c1 : 0.176

Consider now this further molecule.
Problem: Recorded composite z-score of "CCC[C@@H]1C=C(C(=O)OCC)[C@H](c2ccccc2)N1S(=O)(=O)c1ccc(C)cc1" , please.
Result: 0.947

* * *

- experimental.system: Fibroblast growth factor 10 (Homo sapiens)
- procedure.text: FGF10 binders on small-molecule microarrays, primary screen, biochemical, small-molecule microarray, 635 nm fluorescence (AID 1102)
- protocol.conditions: FGF10 binding, fluorescence 635 nm, higher = more signal
Recorded composite z-score, one value per entry.
Number only, please.

Please review the entries below; each comes with its answer.
1) CC(c1ccccc1)C(O)C1C=CC2C(=O)N(c3ccccc3)C(=O)C2N1Nc1ccc(C#N)cc1 (centres undefined) : 0.975
2) C#CCN=C(N)N : 0.528
3) COCCOC(=O)N1C(=O)[C@@]2(c3cc(C#CCCO)ccc31)[C@H](c1ccc(O)cc1)N1[C@H](c3ccccc3)[C@H](c3ccccc3)OC(=O)[C@H]1[C@@H]2C(=O)N1CCc2cc(OC)c(OC)cc2C1 : 1.39
4) O=C1N(CCS(=O)(=O)c2ccccc2)c2ccccc2[C@@H]2OC(c3ccc(OCCCO)cc3)=N[C@]12CCS(=O)(=O)c1ccccc1 : 0.989
5) Cc1ccc(S[C@]2(C(=O)NCCN3CCOCC3)CC(=O)N(C3CCCCC3)[C@@H]2c2ccc(CO)cc2I)cc1 : 1.29
6) CC(C)C[C@@H]1NC(=O)[C@@H]2C[C@H](C(=O)NCCCC[N+](C)(C)C)[C@H](c3ccc(O)cc3)N2C1=O : 1.3

Problem: Fill in the recorded composite z-score for this compound, with Fibroblast growth factor 10 (Homo sapiens) as test system: "C=CCNC(=O)[C@H]1[C@@H]2C(=O)O[C@@H](c3ccccc3)[C@@H](c3ccccc3)N2[C@@H](c2ccc(O)cc2)[C@]12C(=O)Nc1ccc(C#CC3=CCCCC3)cc12"
Result: 0.703

Problem: Further, for "CC(C)CNC(=O)[C@@H]1c2ccccc2C(=O)N(C2Cc3ccccc3C2)[C@H]1c1ccc(CO)cc1" ?
Result: -0.127

Problem: Further, for "COc1cccc(C[C@H]2C[C@@H](CO[Si](C(C)C)(C(C)C)C(C)C)N3C(=O)[C@@]4(C(C)=O)O[C@@]23[C@@H]2C(=O)N(C)C(=O)[C@@H]24)c1" ?
Result: 1.22

Problem: Further, for "COc1ccc([Si](C)(C)[C@H]2[C@H](CCO)O[C@@]3(C(=O)N(Cc4ccc(N5CCOC5=O)cc4)c4ccccc43)[C@@H]2C)cc1" ?
Result: -0.0921

Problem: Further, for "C=C(COC)/C(=C/C[C@H](OC(=O)c1ccncc1)c1ccc(OCCO)cc1)c1cc(C(=O)OC)ccc1OC" ?
Result: 1.47

Problem: Further, for O=C1OCCC=C[C@H]2OC34C=CCN(c5ccc(Cl)cc5)C(=O)[C@H]3N(CCO)C(=O)[C@@H]4C12 (some centres undefined) ?
Result: -0.45

Problem: Further, for "CCCCCCc1nc(-c2ccc(OC)nc2)cc2c1[Si](C(C)C)(C(C)C)OC2" ?
Result: -0.322

Problem: Further, for C=CCC(OC(C)=O)[C@@H]1[C@@H](N(Cc2ccc(-c3cccc(C(F)(F)F)c3)o2)C(=O)c2cccc3ccccc23)c2cc(OCCCO)ccc2N1C(=O)c1ccc2ccccc2c1 (some centres undefined) ?
Result: 0.119

Problem: Further, for "COCCOC(=O)N1C(=O)[C@@]2(c3ccccc31)[C@H](c1ccc(OCCO)cc1)N1[C@H](c3ccccc3)[C@H](c3ccccc3)OC(=O)[C@H]1[C@@H]2C(=O)N1CCN(c2ncccn2)CC1" ?
Result: 1.42

Problem: Further, for "COCCCNC(=O)[C@@]1(Sc2ccc(C)cc2)CC(=O)N(C2CCCCC2)[C@@H]1c1ccc(CO)cc1I" ?
Result: 1.01
